Test system: MDA-MB-468
Assay: phospho-S6 immunofluorescence (DAPI-normalised), per-plate z-score; higher = higher phospho-S6 signal (less pathway suppression)
Settings: co-treatment: lapatinib 1 uM; 24 h
Structures can show the parent of a compound that is named as a salt.
Label False if phospho-S6 immunofluorescence (z-score) falls below 0.3; label True in every other case.

Decide: is the reported value of phospho-S6 immunofluorescence (z-score) for COc1ccc(-c2oc3c(CC=C(C)C)c(O)cc(O)c3c(=O)c2O[C@@H]2O[C@@H](C)[C@H](O)[C@@H](O)[C@H]2O)cc1 [Baohuoside I] (compound 10 µM) equal to or greater than 0.3?
False

Quick check, phospho-S6 immunofluorescence (z-score) >= 0.3? CN1CCN(C(=O)c2cc3cc(Cl)ccc3[nH]2)CC1 (compound 10 µM)
False

Could you tell me if the measured phospho-S6 immunofluorescence (z-score) of CC[C@H](NC(=O)c1c(O)c(-c2ccccc2)nc2ccccc12)c1ccccc1 [Talnetant] (compound 10 µM) reaches 0.3 or more?
True

Textbook exercise: given the entry O=C(N[C@H]1CCN(C(=O)c2cc(C(F)(F)F)cc(C(F)(F)F)c2)[C@H](Cc2ccc(Cl)cc2)C1)c1ccnc2ccccc12 (compound 10 µM) , state whether its phospho-S6 immunofluorescence (z-score) is greater than or equal to 0.3.
False

Please indicate if the recorded phospho-S6 immunofluorescence (z-score) for COc1nc(C)nc(Cl)c1NC1=NCCN1 [Moxonidine] (compound 10 µM) meets or exceeds 0.3.
True

State whether the measured phospho-S6 immunofluorescence (z-score) reaches 0.3, counting equality as reaching it, for CC(=O)[C@H]1CC[C@H]2[C@@H]3CC=C4C[C@@H](O)CC[C@]4(C)[C@H]3CC[C@]12C [Pregnenolone] (compound 10 µM)
True

For this compound, is measured phospho-S6 immunofluorescence (z-score) 0.3 or higher? CCCCC(=O)N(Cc1ccc(-c2ccccc2-c2nnn[nH]2)cc1)[C@H](C(=O)O)C(C)C [Valsartan] (compound 10 µM)
True

Could you verify whether the entry CC(C)NCC(O)c1ccc(NS(C)(=O)=O)cc1 (stereo not drawn) [Sotalol (hydrochloride)] (compound 10 µM) shows phospho-S6 immunofluorescence (z-score) of no less than 0.3?
True

Decide: phospho-S6 immunofluorescence (z-score) of Cc1cc2c(cc1Cl)N(C(=O)Nc1ccc(Oc3cccnc3C)nc1)CC2 (compound 10 µM) >= 0.3?
False

Say whether O=c1cc(C(Cl)(Cl)Cl)oc2ccc(Cl)cc12 (compound 10 µM) shows phospho-S6 immunofluorescence (z-score) of 0.3 or more.
False

In plain terms: is recorded phospho-S6 immunofluorescence (z-score) at least 0.3 for Cc1cc(NC(=O)NCCN2CCC(O)(Cc3ccccc3)CC2)c2ccccc2n1 [Palosuran] (compound 10 µM) ?
False

Given the entry CC(C)C[C@H](NC(=O)CNC(=O)[C@H](Cc1ccc(O)cc1)NC(=O)[C@H](CO)NC(=O)[C@H](Cc1c[nH]c2ccccc12)NC(=O)[C@H](Cc1cnc[nH]1)NC(=O)[C@@H]1CCC(=O)N1)C(=O)N[C@@H](CCCNC(=N)N)C(=O)N1CCC[C@H]1C(=O)NCC(N)=O [Gonadorelin (acetate)] (compound 10 µM) , answer whether its phospho-S6 immunofluorescence (z-score) meets or surpasses 0.3.
True

Could you verify whether the entry O=C(COc1ccc(C(=O)c2ccccc2)cc1)NC1CCN(Cc2ccccc2)CC1 [AdipoRon] (compound 10 µM) shows phospho-S6 immunofluorescence (z-score) of no less than 0.3?
False

I'd appreciate it if you could say whether OC(CCN1CCCCC1)(c1ccccc1)C1CC2C=CC1C2 (stereo not drawn) [Biperiden (Hydrochloride)] (compound 10 µM) has phospho-S6 immunofluorescence (z-score) at least equal to 0.3.
False

Say whether N#Cc1ccc2[nH]cc(CCCCN3CCN(c4ccc5oc(C(N)=O)cc5c4)CC3)c2c1 [Vilazodone] (compound 10 µM) shows phospho-S6 immunofluorescence (z-score) of 0.3 or more.
False

Does the reported phospho-S6 immunofluorescence (z-score) for CC1(C)C(=O)N(CCN2CCC(C(=O)c3ccc(F)cc3)CC2)c2ccccc21 (compound 10 µM) fall at or above the 0.3 mark?
False

Is phospho-S6 immunofluorescence (z-score) at least 0.3? Consider N=C(N)NCCCCN [Agmatine (sulfate)] (compound 10 µM)
False

Please tell me: is the compound CN1CCC(=C2c3ccccc3CCn3c(C=O)cnc32)CC1 [Alcaftadine] (compound 10 µM) at or over 0.3 in terms of phospho-S6 immunofluorescence (z-score)?
True

// inclusive: phospho-S6 immunofluorescence (z-score) at least 0.3? input: CNC(=O)c1cnn(-c2nc(N)c3ncn([C@@H]4O[C@H](CO)[C@@H](O)[C@H]4O)c3n2)c1 [Regadenoson] (compound 10 µM)
True

Answer whether phospho-S6 immunofluorescence (z-score) of CC(C)(C)NC[C@H](O)COc1nsnc1N1CCOCC1 [(S)-Timolol (Maleate)] (compound 10 µM) is greater than or equal to 0.3.
True

State whether the measured phospho-S6 immunofluorescence (z-score) reaches 0.3, counting equality as reaching it, for CC(C)OC(=O)CCC/C=C\C[C@@H]1[C@@H](CC[C@@H](O)CCc2ccccc2)[C@H](O)C[C@@H]1O [Latanoprost] (compound 10 µM)
False

Kindly determine if phospho-S6 immunofluorescence (z-score) recorded for O=c1n(CCCN2CCN(c3cccc(Cl)c3)CC2)nc2ccccn12 [Trazodone (hydrochloride)] (compound 10 µM) is above or exactly 0.3.
False

Exam item: decide whether the reported phospho-S6 immunofluorescence (z-score) for COc1ccccc1Oc1c(NS(=O)(=O)c2ccc(C(C)(C)C)cc2)nc(-c2ncccn2)nc1OCCO [Bosentan (hydrate)] (compound 10 µM) is at least 0.3.
False

Is the recorded value of phospho-S6 immunofluorescence (z-score) equal to or greater than 0.3 for this compound? CCCN(CCc1cccs1)C1CCc2c(O)cccc2C1 (racemic) [rac-Rotigotine (Hydrochloride)] (compound 10 µM)
True

phospho-S6 immunofluorescence (z-score) >= 0.3 for OCCOCCN1CCN(Cc2cccc(Oc3ccccc3)c2)CC1 (compound 10 µM) ?
True

Has CN(C)CC[C@@H](c1ccc(Cl)cc1)c1ccccn1 [Dexchlorpheniramine (maleate)] (compound 10 µM) a recorded phospho-S6 immunofluorescence (z-score) greater than or equal to 0.3?
False

// inclusive: phospho-S6 immunofluorescence (z-score) at least 0.3? input: CC(C)Cc1ccc([C@@H](C)C(=O)NS(C)(=O)=O)cc1 [Reparixin] (compound 10 µM)
True

Is phospho-S6 immunofluorescence (z-score) for CNC[C@H](O)c1ccc(O)c(O)c1 [L-Epinephrine (Bitartrate)] (compound 10 µM) at or above 0.3?
True
